# experimental.conditions: in sec-butanol, 309.15 K
property: solubility (mole fraction)

> print(dat)
                        chemical.string                    property  numeric.result
1  CC(CCC(=O)O)(c1ccc(O)cc1)c1ccc(O)cc1  solubility (mole fraction)           0.124

* * *

# experimental.conditions: in n-propyl acetate, 306.15 K
property: solubility (mole fraction)

> print(dat)
                        chemical.string                    property  numeric.result
1  CC(CCC(=O)O)(c1ccc(O)cc1)c1ccc(O)cc1  solubility (mole fraction)          0.0379

* * *

# experimental.conditions: in n-propanol, 288.15 K
property: solubility (mole fraction)

> print(dat)
                        chemical.string                    property  numeric.result
1  CC(CCC(=O)O)(c1ccc(O)cc1)c1ccc(O)cc1  solubility (mole fraction)          0.0352

* * *

# experimental.conditions: in methanol, 294.15 K
property: solubility (mole fraction)

> print(dat)
                        chemical.string  numeric.result
1  CC(CCC(=O)O)(c1ccc(O)cc1)c1ccc(O)cc1           0.101

* * *

# experimental.conditions: in acetone, 294.15 K
property: solubility (mole fraction)

> print(dat)
                        chemical.string                    property  result
1  CC(CCC(=O)O)(c1ccc(O)cc1)c1ccc(O)cc1  solubility (mole fraction)    0.13

* * *

# experimental.conditions: in n-propanol, 312.15 K
property: solubility (mole fraction)

> print(dat)
                        chemical.string  numeric.result
1  CC(CCC(=O)O)(c1ccc(O)cc1)c1ccc(O)cc1          0.0671

* * *

# experimental.conditions: in sec-butanol, 288.15 K
property: solubility (mole fraction)

> print(dat)
                        chemical.string                    property  numeric.result
1  CC(CCC(=O)O)(c1ccc(O)cc1)c1ccc(O)cc1  solubility (mole fraction)          0.0823

* * *

# experimental.conditions: in acetonitrile, 288.15 K
property: solubility (mole fraction)

> print(dat)
                        chemical.string  numeric.result
1  CC(CCC(=O)O)(c1ccc(O)cc1)c1ccc(O)cc1         0.00804

* * *

# experimental.conditions: in methyl acetate, 303.15 K
property: solubility (mole fraction)

> print(dat)
                        chemical.string  numeric.result
1  CC(CCC(=O)O)(c1ccc(O)cc1)c1ccc(O)cc1          0.0594

* * *

# experimental.conditions: in ethyl formate, 288.15 K
property: solubility (mole fraction)

> print(dat)
                        chemical.string                    property  numeric.result
1  CC(CCC(=O)O)(c1ccc(O)cc1)c1ccc(O)cc1  solubility (mole fraction)          0.0113

* * *

# experimental.conditions: in methanol, 312.15 K
property: solubility (mole fraction)

> print(dat)
                        chemical.string  numeric.result
1  CC(CCC(=O)O)(c1ccc(O)cc1)c1ccc(O)cc1           0.123

* * *

# experimental.conditions: in acetone, 300.15 K
property: solubility (mole fraction)

> print(dat)
                        chemical.string  numeric.result
1  CC(CCC(=O)O)(c1ccc(O)cc1)c1ccc(O)cc1           0.137

* * *

# experimental.conditions: in sec-butanol, 297.15 K
property: solubility (mole fraction)

> print(dat)
                        chemical.string  numeric.result
1  CC(CCC(=O)O)(c1ccc(O)cc1)c1ccc(O)cc1          0.0978

* * *

# experimental.conditions: in n-butyl acetate, 300.15 K
property: solubility (mole fraction)

> print(dat)
                        chemical.string  numeric.result
1  CC(CCC(=O)O)(c1ccc(O)cc1)c1ccc(O)cc1          0.0227

* * *

# experimental.conditions: in acetone, 303.15 K
property: solubility (mole fraction)

> print(dat)
                        chemical.string  numeric.result
1  CC(CCC(=O)O)(c1ccc(O)cc1)c1ccc(O)cc1            0.14

* * *

# experimental.conditions: in ethyl acetate, 294.15 K
property: solubility (mole fraction)

> print(dat)
                        chemical.string                    property  numeric.result
1  CC(CCC(=O)O)(c1ccc(O)cc1)c1ccc(O)cc1  solubility (mole fraction)           0.052

* * *

# experimental.conditions: in isopropanol, 297.15 K
property: solubility (mole fraction)

> print(dat)
                        chemical.string                    property  numeric.result
1  CC(CCC(=O)O)(c1ccc(O)cc1)c1ccc(O)cc1  solubility (mole fraction)          0.0637

* * *

# experimental.conditions: in n-propyl acetate, 318.15 K
property: solubility (mole fraction)

> print(dat)
                        chemical.string  numeric.result
1  CC(CCC(=O)O)(c1ccc(O)cc1)c1ccc(O)cc1          0.0507

* * *

# experimental.conditions: in sec-butanol, 300.15 K
property: solubility (mole fraction)

> print(dat)
                        chemical.string                    property  numeric.result
1  CC(CCC(=O)O)(c1ccc(O)cc1)c1ccc(O)cc1  solubility (mole fraction)           0.103

* * *

# experimental.conditions: in ethanol, 297.15 K
property: solubility (mole fraction)

> print(dat)
                        chemical.string  numeric.result
1  CC(CCC(=O)O)(c1ccc(O)cc1)c1ccc(O)cc1            0.11

* * *

# experimental.conditions: in ethanol, 315.15 K
property: solubility (mole fraction)

> print(dat)
                        chemical.string  result
1  CC(CCC(=O)O)(c1ccc(O)cc1)c1ccc(O)cc1   0.142

* * *

# experimental.conditions: in n-propyl acetate, 288.15 K
property: solubility (mole fraction)

> print(dat)
                        chemical.string                    property  numeric.result
1  CC(CCC(=O)O)(c1ccc(O)cc1)c1ccc(O)cc1  solubility (mole fraction)          0.0291

* * *

# experimental.conditions: in n-butanol, 297.15 K
property: solubility (mole fraction)

> print(dat)
                        chemical.string  numeric.result
1  CC(CCC(=O)O)(c1ccc(O)cc1)c1ccc(O)cc1          0.0867

* * *

# experimental.conditions: in n-butanol, 315.15 K
property: solubility (mole fraction)

> print(dat)
                        chemical.string                    property  result
1  CC(CCC(=O)O)(c1ccc(O)cc1)c1ccc(O)cc1  solubility (mole fraction)   0.116

* * *

# experimental.conditions: in ethyl acetate, 288.15 K
property: solubility (mole fraction)

> print(dat)
                        chemical.string  numeric.result
1  CC(CCC(=O)O)(c1ccc(O)cc1)c1ccc(O)cc1          0.0498

* * *

# experimental.conditions: in ethanol, 300.15 K
property: solubility (mole fraction)

> print(dat)
                        chemical.string                    property  numeric.result
1  CC(CCC(=O)O)(c1ccc(O)cc1)c1ccc(O)cc1  solubility (mole fraction)           0.114

* * *

# experimental.conditions: in ethyl formate, 309.15 K
property: solubility (mole fraction)

> print(dat)
                        chemical.string  result
1  CC(CCC(=O)O)(c1ccc(O)cc1)c1ccc(O)cc1  0.0166

* * *

# experimental.conditions: in n-butanol, 312.15 K
property: solubility (mole fraction)

> print(dat)
                        chemical.string  numeric.result
1  CC(CCC(=O)O)(c1ccc(O)cc1)c1ccc(O)cc1           0.112

* * *

# experimental.conditions: in ethyl formate, 315.15 K
property: solubility (mole fraction)

> print(dat)
                        chemical.string                    property  numeric.result
1  CC(CCC(=O)O)(c1ccc(O)cc1)c1ccc(O)cc1  solubility (mole fraction)          0.0202

* * *

# experimental.conditions: in methyl acetate, 315.15 K
property: solubility (mole fraction)

> print(dat)
                        chemical.string                    property  numeric.result
1  CC(CCC(=O)O)(c1ccc(O)cc1)c1ccc(O)cc1  solubility (mole fraction)          0.0775
